Reported values of Kd for individual entries
- tested-system: PSA (human, UniProt P07288)
- experiment-summary: SPR, 30 uM Zn2+
Bridge positions count the residues as written; N and C are the ends. Ends that are not written are not given here.

# binder, Kd / nM
measured = [
    ("CVAYCIEHHCWTC (disulfide 1-13, 5-10; also: GST fusion, site not given here) [GST-C-4]", 860),
    ("CVFAHNYDYLVC (disulfide 1-12 (inferred); also: GST fusion, site not given here) [GST-B-2]", 800),
    ("CVFTSDYAFC (disulfide 1-10 (inferred); also: GST fusion, site not given here) [GST-A-1]", 1000),
]
